These data points were gathered from patent US11680060B2.

molecular target: human OX2R (Homo sapiens (Human), UniProt O43614); test: IPOne (IP-1) assay in CHO cells expressing human OX2R; assay type: cell-based; details: CHO cells expressing human OX2R; IP-One detection; 2 hours incubation; EC50 = inflection point of four parameter logistic fit; read-out: hOX2R_IP_IC50
Sequence (O43614 whole entry): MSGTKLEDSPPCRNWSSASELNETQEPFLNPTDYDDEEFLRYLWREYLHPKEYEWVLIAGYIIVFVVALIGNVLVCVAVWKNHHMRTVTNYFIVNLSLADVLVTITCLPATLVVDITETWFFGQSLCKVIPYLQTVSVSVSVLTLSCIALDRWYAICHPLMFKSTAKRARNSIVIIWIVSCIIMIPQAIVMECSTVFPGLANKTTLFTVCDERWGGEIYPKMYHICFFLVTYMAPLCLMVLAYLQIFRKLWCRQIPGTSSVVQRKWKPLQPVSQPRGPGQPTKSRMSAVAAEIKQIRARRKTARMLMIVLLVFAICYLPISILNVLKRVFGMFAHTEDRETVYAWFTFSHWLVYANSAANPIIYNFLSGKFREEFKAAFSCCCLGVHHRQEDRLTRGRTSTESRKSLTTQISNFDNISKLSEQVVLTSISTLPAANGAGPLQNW
pIC50: −log10 of the molar value.
test-readout: pIC50

1 = CC(C)OC(=O)N1[C@H](C)C[C@H](NS(C)(=O)=O)[C@@H]1COC1CCC2(c3ncc(F)cn3)CC2C1 (mixture of isomers) [Example 26]
2 = COC(=O)N1[C@H](C)C[C@H](NS(C)(=O)=O)[C@@H]1COC1CCC2(c3ncccn3)CC2C1 (single isomer, unassigned) [Example 183]
3 = CCS(=O)(=O)N[C@H]1C[C@@H](C(F)F)N(C(=O)OC)[C@H]1CO[C@H]1CC[C@@]2(c3ncc(Cl)cn3)C[C@H]2C1 (single isomer, unassigned) [Example 114]
-- ask With regard to pIC50, arrange the entries in ascending order, please. Kindly provide the labels arranged according to the requested ordering.
-- reply 2, 1, 3

----------
biological target: human OX2R (Homo sapiens (Human)); assay: IPOne (IP-1) assay in CHO cells expressing human OX2R; format: cell-based; details: CHO, percentage of mean max effect of a reference compound at 1 uM (100% activity by comparison to Orexin A), human OX2R; read-out: Emax (%)
test-readout: Emax (%)

Solved entries (count: 2):
compound | target-or-system | test-readout | measured-result
COC(=O)N1[C@H](C)C[C@H](NS(=O)(=O)C(C)C)[C@@H]1CO[C@@H]1CC[C@]2(c3ncc(F)cn3)C[C@@H]2C1 | human OX2R (Homo sapiens (Human)) | Emax | 100
COC(=O)N1[C@H](C)C[C@H](NS(C)(=O)=O)[C@@H]1COC1CCC2(c3ncc(Cl)c(C(F)(F)F)n3)CC2C1 (stereo partly shown) | human OX2R (Homo sapiens (Human)) | Emax | 91.7

1 = COC(=O)N1CC[C@H](NS(C)(=O)=O)[C@@H]1COC1CCC2(c3ncccn3)CC2C1 (stereo partly shown)
2 = COC(=O)N1[C@H](C)C[C@H](NS(=O)(=O)N(C)C)[C@@H]1COC1CCC2(c3ncccn3)C(C1)C2(F)F (stereo partly shown)
-- ask Hi! Which is lower in terms of Emax, the first one 1 or the second one 2 ? Respond with the label that goes with your answer.
-- reply 2

----------
biological target: human OX2R (Homo sapiens (Human), UniProt O43614); experiment: IPOne (IP-1) assay in CHO cells expressing human OX2R; format: cell-based; settings: CHO, percentage of mean max effect of a reference compound at 1 uM (100% activity by comparison to Orexin A), human OX2R; read-out: Emax (%)
test-readout: Emax (%)

molecule | target-or-system | measured-result
COC(=O)N1[C@H](C)C[C@H](NS(C)(=O)=O)[C@@H]1CO[C@@H]1CC[C@]2(c3ncccn3)C[C@@H]2C1 (single isomer, unassigned) [Example 180] | human OX2R (Homo sapiens (Human), UniProt O43614) | 99.7
CC(C)OC(=O)N1[C@H](C)C[C@H](NS(=O)(=O)CF)[C@@H]1CO[C@H]1CC[C@@]2(c3ncc(F)cn3)C[C@H]2C1 (single isomer, unassigned) [Example 100] | human OX2R (Homo sapiens (Human), UniProt O43614) | 100
CC(C)OC(=O)N1[C@H](C)C[C@H](NS(=O)(=O)CF)[C@@H]1CO[C@@H]1CC[C@]2(c3ncc(Cl)cn3)C[C@@H]2C1 (single isomer, unassigned) [Example 96] | human OX2R (Homo sapiens (Human), UniProt O43614) | 103
CC(C)OC(=O)N1[C@H](C)C[C@H](NS(C)(=O)=O)[C@@H]1CO[C@@H]1CC[C@]2(c3ncc(F)cn3)C[C@@H]2C1 [Example 29] | human OX2R (Homo sapiens (Human), UniProt O43614) | 102
CC(C)OC(=O)N1CCC[C@H](NS(=O)(=O)CF)[C@@H]1CO[C@H]1CC[C@@]2(c3ncc(F)cn3)C[C@H]2C1 (single isomer, unassigned) [Example 124] | human OX2R (Homo sapiens (Human), UniProt O43614) | 99.3
